System: Escherichia coli TOP10
ASSAY NAME: shrunken log2 fold change of peptide-encoding DNA abundance (4.5 h post-induction vs induction); higher = less antimicrobial activity (less host growth inhibition)
CONDITION CONTEXT: time post-induction: 4.5 h; library: site-saturation at positions 5, 18, 19, 20
Give shrunken log2 fold change for every item shown.
Give bare numbers.

For the sequence RRIRVRPPRLPRPRPRPYINPRP , give its reported shrunken log2 fold change.
-0.724

For the sequence RRIRHRPPRLPRPRPRPSWAPRP , give its reported shrunken log2 fold change.
0.19

For the sequence RRIRDRPPRLPRPRPRPHTDPRP , give its reported shrunken log2 fold change.
-0.623

For the sequence RRIRMRPPRLPRPRPRPSLTPRP , give its reported shrunken log2 fold change.
0.806

For the sequence RRIRHRPPRLPRPRPRPQFNPRP , give its reported shrunken log2 fold change.
-0.619

Field: shrunken log2 fold change. Fill in for each record below.
1. RRIRFRPPRLPRPRPRPGWEPRP
2. RRIRARPPRLPRPRPRPLHSPRP
3. RRIRMRPPRLPRPRPRPHTTPRP

[0.0875, 0.0941, -0.0908]

---

System: Escherichia coli TOP10;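 note: peptides expressed intracellularly from a pBAD plasmid library in pooled LB shake-flask culture, induced with 0.3% L-arabinose, DNA abundance read by NGS, three biological replicates, DESeq2 with apeglm shrinkage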
ASSAY NAME: shrunken log2 fold change of peptide-encoding DNA abundance (4.5 h post-induction vs induction); higher = less antimicrobial activity (less host growth inhibition)
CONDITION CONTEXT: time post-induction: 4.5 h; library: site-saturation at positions 5, 18, 19, 20
Outcome label depends on shrunken log2 fold change relative to -0.05: at/above gives 1, below gives 0.

Known results for sequences:
# check: shrunken log2 fold change of RRIRRRPPRLPRPRPRPNYNPRP is greater than or equal to -0.05
0

# check: shrunken log2 fold change of RRIRNRPPRLPRPRPRPTVFPRP is greater than or equal to -0.05
1

---
# check: shrunken log2 fold change of RRIRFRPPRLPRPRPRPSYNPRP is greater than or equal to -0.05
0

# check: shrunken log2 fold change of RRIRERPPRLPRPRPRPFVTPRP is greater than or equal to -0.05
0

# check: shrunken log2 fold change of RRIRIRPPRLPRPRPRPCHKPRP is greater than or equal to -0.05
0

# check: shrunken log2 fold change of RRIRARPPRLPRPRPRPQGGPRP is greater than or equal to -0.05
1

# check: shrunken log2 fold change of RRIRVRPPRLPRPRPRPMLPPRP is greater than or equal to -0.05
1

# check: shrunken log2 fold change of RRIRKRPPRLPRPRPRPWKYPRP is greater than or equal to -0.05
0

# check: shrunken log2 fold change of RRIRGRPPRLPRPRPRPFTSPRP is greater than or equal to -0.05
1

# check: shrunken log2 fold change of RRIRARPPRLPRPRPRPEMNPRP is greater than or equal to -0.05
1

# check: shrunken log2 fold change of RRIRGRPPRLPRPRPRPAEFPRP is greater than or equal to -0.05
1

# check: shrunken log2 fold change of RRIRERPPRLPRPRPRPWKNPRP is greater than or equal to -0.05
0

# check: shrunken log2 fold change of RRIRARPPRLPRPRPRPLNGPRP is greater than or equal to -0.05
1

# check: shrunken log2 fold change of RRIRNRPPRLPRPRPRPRNSPRP is greater than or equal to -0.05
1

# check: shrunken log2 fold change of RRIRYRPPRLPRPRPRPMFGPRP is greater than or equal to -0.05
0
